# target-desc: T1, hCD47-ECD/Fc protein (Sinobiological) (human, UniProt Q08722 19-139, biotinylated in the Octet assay, sites not stated)
# T1 construct: extracellular domain; Bought protein; also called human CD47-Fc antigen; recombinant hCD47-ECD/Fc; not shown: Fc part of the bought fusion protein
# T1 sequence (Q08722 19-139 limits assumed): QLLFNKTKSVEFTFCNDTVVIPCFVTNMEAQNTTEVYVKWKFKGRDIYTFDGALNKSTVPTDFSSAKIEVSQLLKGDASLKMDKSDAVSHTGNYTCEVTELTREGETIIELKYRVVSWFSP
# assay-method-text: competition ELISA vs biotin-hSIRPα-ECD/His on coated hCD47-ECD/Fc, experiment 1
measurement-name: IC50

binder	result
TY25038 (antibody, V domains shown) VH: QVQLVQSGAEVKKPGSSVKVSCKASGFTFSRYAIHWVRQAPGQGLEWLGGIIPVFGTANYAQKFQGRVTITADKSTSTAYMELSSLRSEDTAVYYCARQGILGGFAYWGQGTLVTVSS VL: DIQLTQSPSSLSASVGDRVTITCRASESVDFHGKSFLAWYQQKPGKAPKLLIYAASSLQSGVPSRFSGSGSGTDFTLTISSLQPEDFATYYCQQYLELPFTFGQGTKVEIKR	> 100 nM

Go through the items and report each one's IC50.
1. TY25037 (antibody, V domains shown) VH: QVQLVQSGAEVKKPGSSVKVSCKASGYSITSGHYWTWIRQAPGQGLEWIGGIIPVFGTPNYAQKFQGRVTITADKSTSTAYMELSSLRSEDTAVYYCASYGYGGAYFDVWGQGTLVTVSS VL: DIQLTQSPSSLSASVGDRVTITCRASQSVDFHGISFLHWYQQKPGKAPKLLIYDASNRATGIPSRFSGSGSGTDFTLTISSLQPEDFATYYCVQGIQWPWTFGQGTKVEIKR
2. TY25039 (antibody, V domains shown) VH: QVQPAQSGAEVKKPGSSVKVSCKASGYSISSGYYWGWIRQAPGQGLEWIGAISYSGSTYYSPSLKSRVTITADKSTSTAYMELSSLRSEDTAVYYCARHYLFAGSTSYDAFDIWGQGTLVTVSS VL: DIQLTQSPSSLSASVGDRVTITCRASQSVDFYGFSFLAWYQQKPGKAPKLLIYDASNRATGIPSRFSGSGSGTDFTLTISSLQPEDFATYYCQQSYRTPLTFGQGTKVEIKR

Ans.
1: > 100 nM; 2: > 100 nM
